System: PC-3 prostate cancer cells
experimental_protocol: MTT cytotoxicity assay, PC-3
measurement_setup: Homo sapiens, 48 h, read-out: IC50 PC-3
pIC50: −log10 of the molar value.
Binned pIC50; ranges: small value: < 4; mid value: ≥ 4 and < 5; large value: ≥ 5

Cc1ccc(C(=O)CCCC(=O)NN=Cc2ccco2)cc1 : small value
COc1ccc(C(=O)CCCC(=O)NN=Cc2ccco2)cc1 : small value
O=C(CCCC(=O)c1ccccc1)NN=Cc1ccco1 : mid value

Quick check: band for `O=C(CCCC(=O)c1ccc(Cl)cc1)NN=Cc1ccco1`
mid value

// return the class label for `COc1ccc(C=NNC(=O)CCCC(=O)c2ccc(Cl)cc2)cc1`
mid value

Textbook exercise: identify the category of the compound given here, COc1cccc2c1C(=O)c1c(O)c3c(c(O)c1C2=O)C[C@@](O)(C(=O)CO)C[C@@H]3O[C@H]1C[C@H](N)[C@H](O)[C@H](C)O1 [doxorubicin, reference compound] , according to its measured value.
large value

* * *

System: MCF-7 breast cancer cells
experimental_protocol: MTT cytotoxicity assay, MCF-7
measurement_setup: Homo sapiens, MCF7, 48 h, read-out: IC50 MCF-7
outcome_measure: pIC50
Conceptually, pIC50 converts a concentration in mol/L into minus its log10.

Answered cases to consult:
COc1cccc2c1C(=O)c1c(O)c3c(c(O)c1C2=O)C[C@@](O)(C(=O)CO)C[C@@H]3O[C@H]1C[C@H](N)[C@H](O)[C@H](C)O1 [doxorubicin, reference compound] : 6.08
COc1ccc(C=NNC(=O)CCCC(=O)c2cccs2)cc1 : 4.90
O=C(CCCC(=O)c1ccc(Cl)cc1)NN=Cc1ccco1 : 4.29
COc1ccc(/C=N/NC(=O)CCCC(=O)c2ccccc2)cc1 : 4.59
COc1ccc(C=NNC(=O)CCCC(=O)c2ccc(C)cc2)cc1 : 5.03

Turning now to a further compound:
What value of pIC50 has been recorded for this entry: `CC(C)CC=NNC(=O)CCCC(=O)c1cccs1`
4.00

* * *

Test system: PC-3 prostate cancer cells
experimental_protocol: MTT cytotoxicity assay, PC-3
measurement_setup: Homo sapiens, 48 h, read-out: IC50 PC-3
outcome_measure: log10(IC50) (log10 of the value in µM)
// units: µM (pre-log); metric: IC50; scale: log10

Study these solved cases before continuing.
COc1ccc(C(=O)CCCC(=O)NN=CCC(C)C)cc1 : 2.18
COc1ccc(/C=N/NC(=O)CCCC(=O)c2ccccc2)cc1 : 1.76
O=C(CCCC(=O)c1cccs1)NN=Cc1ccco1 : 2.70
CC(C)CC=NNC(=O)CCCC(=O)c1ccc(Cl)cc1 : 2.44
Cc1ccc(C(=O)CCCC(=O)NN=CCC(C)C)cc1 : 2.03

Now, please, on to the next molecule.
Could you share what log10(IC50) was measured for `COc1ccc(C=NNC(=O)CCCC(=O)c2ccc(OC)cc2)cc1` , tested on PC-3 prostate cancer cells?
1.01

* * *

outcome_measure: melting point

Return reported melting point; argument: `O=C(CCCC(=O)c1ccccc1)NN=Cc1ccco1`
119 to 120 °C

What value of measured melting point is listed for `COc1ccc(C=NNC(=O)CCCC(=O)c2ccc(Cl)cc2)cc1` ?
121 to 122.5 °C

Find the recorded melting point belonging to `Cc1ccc(C(=O)CCCC(=O)NN=Cc2ccco2)cc1` and report it.
133.5 to 134.5 °C

Return reported melting point; argument: `COc1ccc(C=NNC(=O)CCCC(=O)c2cccs2)cc1`
130 to 131 °C

melting point lookup needed for `O=C(CCCC(=O)c1cccs1)NN=Cc1ccco1` , thanks.
121 to 122 °C
